# Test system: Vero E6 infected with SARS-CoV-2
# procedure_text: inhibition of SARS-CoV-2 cytopathic effect; higher = more antiviral protection, active = above 15
# stated_conditions: 100 nM; 48 h
Give inhibition of SARS-CoV-2 cytopathic effect for every item shown.
Record the value in %, omitting the unit from your answer.

Look up inhibition of SARS-CoV-2 cytopathic effect: O/N=C/c1ccc(-c2ccc(O)c(F)c2)c(Cl)c1O
-2.06

Look up inhibition of SARS-CoV-2 cytopathic effect: Cc1cc(OCc2nnc(SC3CCCC3)n2-c2cccnc2)ccc1-c1ccc(S(C)(=O)=O)cc1
1.82

Look up inhibition of SARS-CoV-2 cytopathic effect: CC1CC(OC(=O)C(O)c2ccccc2)CC(C)(C)N1C (configuration not stated)
1.74

Look up inhibition of SARS-CoV-2 cytopathic effect: C#C[C@]1(O)CC[C@H]2[C@@H]3CCC4=Cc5oncc5C[C@]4(C)[C@H]3CC[C@@]21C
1.74

Look up inhibition of SARS-CoV-2 cytopathic effect: CCN(CC)C(=O)N[C@H]1C=C2c3cccc4[nH]cc(c34)C[C@H]2N(C)C1 [lisuride]
0.39

Look up inhibition of SARS-CoV-2 cytopathic effect: CCNC(=O)NS(=O)(=O)c1sc(CC(C)C)cc1-c1ccc(Cn2c(-c3ccccc3)nc(OC)c2C=O)cc1
2.26

Look up inhibition of SARS-CoV-2 cytopathic effect: CC(C)C[C@H](NC(=O)[C@@H](Cc1c[nH]c2ccccc12)NC(=O)[C@H](Cc1ccc(O)cc1)NC(=O)[C@H](CO)NC(=O)[C@H](Cc1c[nH]c2ccccc12)NC(=O)[C@H](Cc1c[nH]cn1)NC(=O)[C@@H]1CCC(=O)N1)C(=O)N[C@@H](CCCNC(=N)N)C(=O)N1CCC[C@H]1C(=O)NCC(N)=O
1.66

====

# System: Vero E6 infected with SARS-CoV-2
# procedure_text: inhibition of SARS-CoV-2 cytopathic effect; higher = more antiviral protection, active = above 15
# stated_conditions: 1 nM; 48 h
Give inhibition of SARS-CoV-2 cytopathic effect for every item shown.

Look up inhibition of SARS-CoV-2 cytopathic effect: CC(C)=CCC[C@](C)(O)[C@@H]1CC=C(C)CC1 [levomenol]
0.81% (inactive)

Look up inhibition of SARS-CoV-2 cytopathic effect: NC(=O)NC1NC(=O)NC1=O (stereo not drawn) [allantoin]
-0.84% (inactive)

Look up inhibition of SARS-CoV-2 cytopathic effect: NCCNc1ccc(NCCN)c2c1C(=O)c1ccncc1C2=O [pixantrone]
-1.68% (inactive)

Look up inhibition of SARS-CoV-2 cytopathic effect: CC(=O)OCC(=O)[C@@]1(O)CC[C@H]2[C@@H]3CCC4=CC(=O)C=C[C@]4(C)[C@H]3[C@@H](O)C[C@@]21C [prednisolone-acetate]
0.64% (inactive)

Look up inhibition of SARS-CoV-2 cytopathic effect: CCCCCCCCCCCCC/C=C/[C@@H](O)[C@@H](N)CO[P@](=O)(O)OCC[N+](C)(C)C [sphingosylphosphorylcholine]
-0.9% (inactive)

Look up inhibition of SARS-CoV-2 cytopathic effect: CO/N=C(\C(=O)N[C@@H]1C(=O)N2C(C(=O)[O-])=C(C[N+]3(C)CCCC3)CS[C@H]12)c1csc(N)n1 [cefepime]
0.86% (inactive)

Look up inhibition of SARS-CoV-2 cytopathic effect: O=C(Nc1cnn2ccc(N3CCC[C@@H]3c3cc(F)ccc3F)nc12)N1CC[C@H](O)C1 [larotrectinib]
1.44% (inactive)

Look up inhibition of SARS-CoV-2 cytopathic effect: Nc1nccc(/C=C/c2ccccc2)n1
3.44% (inactive)

====

# System: Vero E6 infected with SARS-CoV-2
# procedure_text: SARS-CoV-2 infection rate relative to infected DMSO; higher = more infection, active = 60 or less
# stated_conditions: 24 h
The label depends only on SARS-CoV-2 infection rate: T if it is at least 90%, F if it is smaller.

Could you tell me if the measured SARS-CoV-2 infection rate of CC(=O)N[C@@H](CC(C)C)C(=O)O [acetyl-l-leucine] (10 µM) reaches 90% or more?
T

Could you tell me if the measured SARS-CoV-2 infection rate of O=C(Nc1ccccc1)[C@]12C[C@H]1/C(=N\O)c1ccccc1O2 (10 µM) reaches 90% or more?
F

Could you tell me if the measured SARS-CoV-2 infection rate of CC[C@@H](Nc1c(Nc2cccc(C(=O)N(C)C)c2O)c(=O)c1=O)c1ccc(C)o1 [navarixin] (10 µM) reaches 90% or more?
T

Could you tell me if the measured SARS-CoV-2 infection rate of O=C(O)Cc1ccc(OCc2ccccc2)c(Cl)c1 [benzofenac] (10 µM) reaches 90% or more?
T

====

# Test system: Vero E6 infected with SARS-CoV-2
# procedure_text: morphology score (similarity to uninfected cells); higher = more like uninfected cells
# stated_conditions: 24 h
Give morphology score for every item shown.
Field format: numeric only.

Look up morphology score: CS(=O)(=O)OCCCCOS(C)(=O)=O [busulfan] (10 µM)
-0.026

Look up morphology score: CCOC(=O)C1=C(COCCN)NC(C)=C(C(=O)OC)C1c1ccccc1Cl (stereo not given) [amlodipine] (10 µM)
0.697

Look up morphology score: Oc1ccc2c(c1)CC[C@H](c1ccccc1)[C@@H]2c1ccc(OCCN2CCCC2)cc1 [lasofoxifene] (0.833333 µM)
0.106

Look up morphology score: COc1cc([C@@H]2c3cc4c(cc3[C@@H](O[C@@H]3O[C@@H]5CO[C@@H](c6cccs6)O[C@H]5[C@H](O)[C@H]3O)[C@H]3COC(=O)[C@H]23)OCO4)cc(OC)c1O [teniposide] (10 µM)
-0.0983

Look up morphology score: CN(C)c1cccc(Oc2cnc(Nc3cccc(O)c3)nc2)c1 (10 µM)
0.0803

====

# System: Vero E6 infected with SARS-CoV-2
# procedure_text: inhibition of SARS-CoV-2 cytopathic effect; higher = more antiviral protection, active = above 15
# stated_conditions: 833.33 nM; 48 h
Give inhibition of SARS-CoV-2 cytopathic effect for every item shown.
Record the value in %, omitting the unit from your answer.

Look up inhibition of SARS-CoV-2 cytopathic effect: Nc1cc(C(Cl)=C(Cl)Cl)c(S(N)(=O)=O)cc1S(N)(=O)=O
-0.01

Look up inhibition of SARS-CoV-2 cytopathic effect: Fc1ccc(C(c2ccccc2)(c2ccccc2F)n2ccnc2)cc1 (centres undefined)
-1.83

Look up inhibition of SARS-CoV-2 cytopathic effect: CC[C@H]1[C@@H](O)[C@@H]2[C@H](CC[C@]3(C)[C@@H]([C@H](C)CCOS(=O)(=O)O)CC[C@@H]23)[C@@]2(C)CC[C@@H](O)C[C@@H]12
1.94

Look up inhibition of SARS-CoV-2 cytopathic effect: N=C(N)N/N=C/c1c(Cl)cccc1Cl [guanaben-acetate]
-2.55

====

Give inhibition of SARS-CoV-2 cytopathic effect for every item shown.
# System: Vero E6 infected with SARS-CoV-2
# procedure_text: inhibition of SARS-CoV-2 cytopathic effect; higher = more antiviral protection, active = above 15
# stated_conditions: 100 nM; 48 h
Record the value in %, omitting the unit from your answer.

Look up inhibition of SARS-CoV-2 cytopathic effect: Cc1c(O)cccc1C(=O)N[C@@H](CSc1ccccc1)[C@H](O)CN1C[C@H]2CCCC[C@H]2C[C@H]1C(=O)NC(C)(C)C
-1.32

Look up inhibition of SARS-CoV-2 cytopathic effect: O=C(/C=C/c1ccc(O)c(O)c1)c1ccc(O)cc1O
1.11

Look up inhibition of SARS-CoV-2 cytopathic effect: CCCCOc1ccc(-c2cncc(C(=O)NCc3cccnc3N3CCOCC3)c2)cc1Cl
-0.55

Look up inhibition of SARS-CoV-2 cytopathic effect: CCN(CC)CCOc1ccc(Cc2ccccc2)cc1
-4.41

Look up inhibition of SARS-CoV-2 cytopathic effect: CCn1cc(C(=O)O)c(=O)c2ccc(-c3ccncc3)cc21
-1.66

Look up inhibition of SARS-CoV-2 cytopathic effect: CC[C@H](c1ccc(O)cc1)[C@@H](CC)c1ccc(O)cc1
-0.76

Look up inhibition of SARS-CoV-2 cytopathic effect: O=C(NC(Cc1cc(=O)[nH]c2ccccc12)C(=O)O)c1ccc(Cl)cc1 (stereo unspecified) [rebamipide]
4.52

Look up inhibition of SARS-CoV-2 cytopathic effect: Nc1nc2cc(-c3ccc4ncc(C(=O)N5CCOCC5)n4c3)ccc2o1
4.68

Look up inhibition of SARS-CoV-2 cytopathic effect: O=C(Nc1cc(Cl)cc(Cl)c1O)c1c(O)c(Cl)cc(Cl)c1Cl [oxyclozanide]
0.71

Look up inhibition of SARS-CoV-2 cytopathic effect: CCC(CC)(NC(=O)C(C)C)C(=O)N[C@@H](CCCNC(=N)N)C(=O)NC1(C(=O)NC(c2ccc(F)cc2)c2ccc(F)cc2)CCCC1
-1.6

Look up inhibition of SARS-CoV-2 cytopathic effect: C=C1CC[C@H](O)C/C1=C/C=C1\CCC[C@]2(C)[C@@H]([C@H](C)CCCC(C)(C)O)CC[C@@H]12
-3.43

Look up inhibition of SARS-CoV-2 cytopathic effect: CC(COc1ccccc1)N(CCCl)Cc1ccccc1 (stereo unspecified)
1.57

Look up inhibition of SARS-CoV-2 cytopathic effect: N#Cc1ccc(COC[C@H]2O[C@@H](n3c(NCc4ccc(Cl)c(Cl)c4)nc4c(N)ncnc43)[C@H](O)[C@@H]2O)cc1
-1.89

Look up inhibition of SARS-CoV-2 cytopathic effect: C=CC(=O)Nc1cccc(Oc2nc(Nc3ccc(N4CCN(C)CC4)cc3)ncc2Cl)c1
-2.31

Look up inhibition of SARS-CoV-2 cytopathic effect: CC#CCC(C)[C@H](O)/C=C/[C@@H]1[C@H]2C/C(=C/CCCC(=O)O)C[C@H]2C[C@H]1O (stereo partly specified)
-0.18

Look up inhibition of SARS-CoV-2 cytopathic effect: Fc1ccc(CN2CCC(Nc3ccc(C(F)(F)F)nn3)CC2)cc1F
2.17

Look up inhibition of SARS-CoV-2 cytopathic effect: CN1C(C(=O)Nc2ccccn2)=C(O)c2sccc2S1(=O)=O
-1.6

Look up inhibition of SARS-CoV-2 cytopathic effect: COc1cc2c(cc1OC)CC(=O)N(CCCN(C)C[C@H]1Cc3cc(OC)c(OC)cc31)CC2
-0.32

Look up inhibition of SARS-CoV-2 cytopathic effect: O=C(O)C(Cl)Cl [dichloroacetate]
2.35

Look up inhibition of SARS-CoV-2 cytopathic effect: CCN(CC)CCNC(=O)c1cc(S(C)(=O)=O)ccc1OC [tiapride]
-0.61

Look up inhibition of SARS-CoV-2 cytopathic effect: CC[C@@]1(O)C(=O)OCc2c1cc1n(c2=O)Cc2cc3ccccc3nc2-1
-1.93

Look up inhibition of SARS-CoV-2 cytopathic effect: CCN(CC)C(=O)[C@@]1(c2ccccc2)C[C@H]1CN
-4.94

Look up inhibition of SARS-CoV-2 cytopathic effect: CC[C@H](NC(=O)c1c(C)c(-c2ccccc2)nc2ccccc12)c1ccccc1
5.18

Look up inhibition of SARS-CoV-2 cytopathic effect: COc1ccccc1N1CCN(CCN(C(=O)C2CCCCC2)c2ccccn2)CC1
-0.56

Look up inhibition of SARS-CoV-2 cytopathic effect: CC(C)(C)CC(C)(C)c1ccc(OCCOCC[N+](C)(C)Cc2ccccc2)cc1
-12.9

Look up inhibition of SARS-CoV-2 cytopathic effect: Cc1cc(N2CCN([C@@H]3CN[C@H](C(=O)N4CCSC4)C3)CC2)n(-c2ccccc2)n1
1

Look up inhibition of SARS-CoV-2 cytopathic effect: Nc1nc2[nH]cc(CCc3ccc(C(=O)N[C@@H](CCC(=O)O)C(=O)O)cc3)c2c(=O)[nH]1
1.39

Look up inhibition of SARS-CoV-2 cytopathic effect: CCCC[C@]1(CC)CS(=O)(=O)c2cc(CNC(CC(=O)O)CC(=O)O)c(OC)cc2[C@@H](c2ccccc2)N1
5.12

Look up inhibition of SARS-CoV-2 cytopathic effect: CC(=O)N[C@@H](Cc1c[nH]c2ccccc12)C(=O)OCc1cc(C(F)(F)F)cc(C(F)(F)F)c1
2.32

Look up inhibition of SARS-CoV-2 cytopathic effect: Nc1nc2c(ncn2COCCO)c(=O)[nH]1
6.1

Look up inhibition of SARS-CoV-2 cytopathic effect: O=[N+]([O-])/C=C/c1ccc2c(c1)OCO2
-1.64

Look up inhibition of SARS-CoV-2 cytopathic effect: CN(C)CCCSc1ccccc1NC(=O)/C=C/c1ccccc1
-0.47

Look up inhibition of SARS-CoV-2 cytopathic effect: O=C(COP(=O)(O)O)[C@@H](O)[C@H](O)[C@H](O)COP(=O)(O)O
-0.5

Look up inhibition of SARS-CoV-2 cytopathic effect: Clc1cccc(SC2CCNCC2)n1
1.08

Look up inhibition of SARS-CoV-2 cytopathic effect: CCCCC(=O)O[C@H]1CC[C@H]2[C@@H]3CCc4cc(O)ccc4[C@H]3CC[C@]12C
-1.48

Look up inhibition of SARS-CoV-2 cytopathic effect: Cc1ccc(NC(=O)c2cccc(C(C)(C)C#N)c2)cc1Nc1ccc2ncn(C)c(=O)c2c1
-0.67

Value source: the supplement of paper PMC13380429
